- assay procedure: Study G1T28-1-01 plasma PK, first-in-human single dose
- Format: in vivo
- particulars: both, human, plasma, intravenous, […]2, healthy volunteers, both […]2 cohorts (n = 18), mean; read-out: Vz

smiles data: CN1CCN(c2ccc(Nc3ncc4cc5n(c4n3)C3(CCCCC3)CNC5=O)nc2)CC1
Vd [L]: 2580

###

- assay procedure: Study G1T28-1-01 plasma PK, first-in-human single dose
- Assay type: in vivo
- particulars: both sexes, human, plasma; healthy volunteers, single 30-min IV 12 mg/m2 (n = 3), mean; read-out: AUC0-inf

smiles data: CN1CCN(c2ccc(Nc3ncc4cc5n(c4n3)C3(CCCCC3)CNC5=O)nc2)CC1
AUC(0-inf), ng·h/mL: 143

###

- assay procedure: Study G1T28-03 Part 1 plasma PK (with topotecan)
- Format: in vivo, human
- particulars: human, plasma, ES-SCLC + topotecan, 200 mg/m2, Cycle 1 Day 1 (n = 10), geometric mean; read-out: Vz

smiles data: CN1CCN(c2ccc(Nc3ncc4cc5n(c4n3)C3(CCCCC3)CNC5=O)nc2)CC1
endpoint unit: L
Vd: 1650

###

- assay procedure: Study G1T28-02 Part 1 plasma PK (with E/P)
- Assay type: in vivo, human
- particulars: human, plasma, intravenous, ES-SCLC + E/P, 200 mg/m2, Cycle 1 Day 3 (n = 8), range
recorded metric: Tmax

compound: CN1CCN(c2ccc(Nc3ncc4cc5n(c4n3)C3(CCCCC3)CNC5=O)nc2)CC1 [trilaciclib]
result: 28.2 to 60 min

###

- assay procedure: Study G1T28-03 Part 1 plasma PK (with topotecan)
- Format: in vivo, human
- particulars: human, plasma, 200 mg/m2, ES-SCLC + topotecan, 200 mg/m2, Cycle 1 Day 1 (n = 10), geometric mean; read-out: AUC0-inf
- Source text: G1T28-03 (NCT02514447) was a multicentre Phase Ib/IIa study in patients with previously treated ES-SCLC [14]. […] Part 1 was a Phase Ib, open-label, dose-finding portion. Part 2 was a Phase IIa, randomized, double-blind, placebo-controlled portion. […] In Part 1 of the study, blood samples for PK analysis were collected at prespecified time points on Cycle 1 Day 1 and Cycle 1 Day 4 for all patients.

smiles data: CN1CCN(c2ccc(Nc3ncc4cc5n(c4n3)C3(CCCCC3)CNC5=O)nc2)CC1
AUC(0-inf): 2410 ng·h/mL

###

- assay procedure: Study G1T28-02 Part 1 plasma PK (with E/P)
- Format: in vivo, human
- particulars: human, plasma, intravenous, ES-SCLC + E/P, 200 mg/m2, Cycle 1 Day 3 (n = 8), mean; read-out: AUCtau (AUC0-inf, footnote a)
recorded metric: AUC (ng·h/mL)

smiles data: CN1CCN(c2ccc(Nc3ncc4cc5n(c4n3)C3(CCCCC3)CNC5=O)nc2)CC1
numeric readout: 3110

###

- assay procedure: Study G1T28-03 Part 1 plasma PK (with topotecan)
- Assay type: in vivo, human
- particulars: human, plasma, 280 mg/m2, ES-SCLC + topotecan, 280 mg/m2, Cycle 1 Day 4 (n = 7), geometric mean
recorded metric: clearance (mL/min)

compound: CN1CCN(c2ccc(Nc3ncc4cc5n(c4n3)C3(CCCCC3)CNC5=O)nc2)CC1 [trilaciclib]
numeric readout: 2080

###

- assay procedure: Study G1T28-1-01 plasma PK, first-in-human single dose
- Type: in vivo
- particulars: both, human, plasma, intravenous, […]2, healthy volunteers, both […]2 cohorts (n = 18), mean

molecule: CN1CCN(c2ccc(Nc3ncc4cc5n(c4n3)C3(CCCCC3)CNC5=O)nc2)CC1 [trilaciclib]
clearance, mL/min: 2050

###

- assay procedure: Study G1T28-1-01 plasma PK, first-in-human single dose
- Format: in vivo
- particulars: both sexes, human, plasma, iv, 96 mg/m2, healthy volunteers, single 30-min IV 96 mg/m2 (n = 6), mean

smiles data: CN1CCN(c2ccc(Nc3ncc4cc5n(c4n3)C3(CCCCC3)CNC5=O)nc2)CC1
clearance: 2370 mL/min

###

- assay procedure: Study G1T28-02 Part 1 plasma PK (with E/P)
- Assay type: in vivo, human
- particulars: human, plasma, intravenous, ES-SCLC + E/P, 240 mg/m2, Cycle 1 Day 1 (n = 1)
recorded metric: clearance (mL/min)

smiles data: CN1CCN(c2ccc(Nc3ncc4cc5n(c4n3)C3(CCCCC3)CNC5=O)nc2)CC1
numeric readout: 3850

###

- assay procedure: Study G1T28-03 Part 1 plasma PK (with topotecan)
- Type: in vivo, human
- particulars: human, plasma; ES-SCLC + topotecan, 240 mg/m2, Cycle 1 Day 4 (n = 15), geometric mean; read-out: Cmax
- Description: G1T28-03 (NCT02514447) was a multicentre Phase Ib/IIa study in patients with previously treated ES-SCLC [14]. […] Part 1 was a Phase Ib, open-label, dose-finding portion. Part 2 was a Phase IIa, randomized, double-blind, placebo-controlled portion. […] In Part 1 of the study, blood samples for PK analysis were collected at prespecified time points on Cycle 1 Day 1 and Cycle 1 Day 4 for all patients.
recorded metric: Cmax (ng/mL)

smiles data: CN1CCN(c2ccc(Nc3ncc4cc5n(c4n3)C3(CCCCC3)CNC5=O)nc2)CC1
recorded metric: Cmax
numeric readout: 1220

###

- assay procedure: Study G1T28-03 Part 1 plasma PK (with topotecan)
- Format: in vivo, human
- particulars: human, plasma, 240 mg/m2, ES-SCLC + topotecan, 240 mg/m2, Cycle 1 Day 4 (n = 15), geometric mean; read-out: AUCtau (AUC0-inf, footnote a)

compound: CN1CCN(c2ccc(Nc3ncc4cc5n(c4n3)C3(CCCCC3)CNC5=O)nc2)CC1 [trilaciclib]
AUC(0-inf) / ng·h/mL: 2880

###

- assay procedure: Study G1T28-1-01 plasma PK, first-in-human single dose
- Format: in vivo
- particulars: both, human, plasma, intravenous, […]2
recorded metric: Tmax (min)

compound: CN1CCN(c2ccc(Nc3ncc4cc5n(c4n3)C3(CCCCC3)CNC5=O)nc2)CC1 [trilaciclib]
numeric readout: 28.2

###

- assay procedure: Study G1T28-03 Part 1 plasma PK (with topotecan)
- Format: in vivo, human
- particulars: human, plasma, 240 mg/m2, ES-SCLC + topotecan, 240 mg/m2, Cycle 1 Day 1 (n = 14), range
recorded metric: Tmax

smiles data: CN1CCN(c2ccc(Nc3ncc4cc5n(c4n3)C3(CCCCC3)CNC5=O)nc2)CC1
recorded metric: Tmax
result: 24 to 42 min

###

- assay procedure: Population PK model with allometric scaling of preclinical and human PK data
- Set-up: species or system mouse, rat, dog
- particulars: 150 mg/kg; oral, mouse; estimated
recorded metric: bioavailability (%)

compound: CN1CCN(c2ccc(Nc3ncc4cc5n(c4n3)C3(CCCCC3)CNC5=O)nc2)CC1 [trilaciclib]
recorded metric: bioavailability
numeric readout: 62

###

- assay procedure: Study G1T28-03 Part 1 plasma PK (with topotecan)
- Type: in vivo, human
- particulars: human, plasma; ES-SCLC + topotecan, 280 mg/m2, Cycle 1 Day 4 (n = 7), geometric mean

smiles data: CN1CCN(c2ccc(Nc3ncc4cc5n(c4n3)C3(CCCCC3)CNC5=O)nc2)CC1
half-life (h): 8.54

###

- assay procedure: Study G1T28-02 Part 1 plasma PK (with E/P)
- Format: in vivo, human
- particulars: human, plasma, intravenous, ES-SCLC + E/P, 240 mg/m2, Cycle 1 Day 3 (n = 1)
recorded metric: clearance (mL/min)

smiles data: CN1CCN(c2ccc(Nc3ncc4cc5n(c4n3)C3(CCCCC3)CNC5=O)nc2)CC1
recorded metric: clearance
numeric readout: 3000

###

- assay procedure: Study G1T28-03 Part 1 plasma PK (with topotecan)
- Assay type: in vivo, human
- particulars: human, plasma, ES-SCLC + topotecan, 200 mg/m2, Cycle 1 Day 1 (n = 10), geometric mean

compound: CN1CCN(c2ccc(Nc3ncc4cc5n(c4n3)C3(CCCCC3)CNC5=O)nc2)CC1 [trilaciclib]
clearance / mL/min: 2750

###

- assay procedure: Study G1T28-02 Part 1 plasma PK (with E/P)
- Format: in vivo, human
- particulars: human, plasma, intravenous, ES-SCLC + E/P, 200 mg/m2, Cycle 1 Day 1 (n = 8), mean; read-out: Vz
recorded metric: Vd (L)

smiles data: CN1CCN(c2ccc(Nc3ncc4cc5n(c4n3)C3(CCCCC3)CNC5=O)nc2)CC1
recorded metric: Vd
numeric readout: 1700

###

- assay procedure: Study G1T28-1-01 plasma PK, first-in-human single dose
- Type: in vivo
- particulars: both sexes, human, plasma, iv, 12 mg/m2, healthy volunteers, single 30-min IV 12 mg/m2 (n = 3), mean; read-out: Vz
recorded metric: Vd (L)

smiles data: CN1CCN(c2ccc(Nc3ncc4cc5n(c4n3)C3(CCCCC3)CNC5=O)nc2)CC1
endpoint unit: L
numeric readout: 1770

###

- assay procedure: Study G1T28-02 Part 1 plasma PK (with E/P)
- Type: in vivo, human
- particulars: human, plasma, intravenous, ES-SCLC + E/P, 200 mg/m2, Cycle 1 Day 3 (n = 8), mean

smiles data: CN1CCN(c2ccc(Nc3ncc4cc5n(c4n3)C3(CCCCC3)CNC5=O)nc2)CC1
clearance: 2230 mL/min

// provenance: paper PMC8026479
